- SYSTEM: FXR (Rattus norvegicus, UniProt Q62735)
- ASSAY_PROTOCOL: cell-based
- EXPERIMENTAL_CONTEXT: 20 μM
EXPERIMENTAL_ENDPOINT: FXR-dependent CAT activity, induction (fold)
Numbers only, in fold.

| COMPOUND | FXR-dependent CAT activity, induction [fold] |
| --- | --- |
| CC(C)=CCc1c(O)cc(O)c2c1O[C@H](c1ccc(O)cc1)CC2=O [8-prenylnaringenin] | 38 |
| COc1cc(O)c(CC=C(C)C)c2c1C(=O)CC(c1ccc(O)cc1)O2 (stereo not shown) [Isoxanthohumol] | 9 |

Okay, next one:
input: Please report the recorded FXR-dependent CAT activity, induction for COc1cc2c(cc1OC)[C@@H]1C(=O)c3ccc(O)c(CC=C(C)C)c3O[C@@H]1CO2 [rotenonic acid] .
output: 20

###

- SYSTEM: FXR (Rattus norvegicus, UniProt Q62735)
- Sequence (Q62735 1-469): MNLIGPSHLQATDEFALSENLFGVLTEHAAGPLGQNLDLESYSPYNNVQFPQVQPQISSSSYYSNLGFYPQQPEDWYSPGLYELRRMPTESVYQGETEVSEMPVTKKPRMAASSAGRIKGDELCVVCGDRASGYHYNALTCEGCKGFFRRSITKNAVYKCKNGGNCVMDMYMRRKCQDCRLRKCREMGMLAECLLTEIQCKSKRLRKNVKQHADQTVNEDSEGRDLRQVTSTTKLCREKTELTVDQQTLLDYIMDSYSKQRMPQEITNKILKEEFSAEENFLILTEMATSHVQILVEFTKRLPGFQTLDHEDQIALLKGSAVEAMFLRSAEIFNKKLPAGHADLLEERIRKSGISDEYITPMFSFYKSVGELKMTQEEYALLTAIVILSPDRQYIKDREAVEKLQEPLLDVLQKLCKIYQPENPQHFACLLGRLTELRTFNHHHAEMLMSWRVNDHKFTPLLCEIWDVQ
- Sequence (P28700 1-467 partner): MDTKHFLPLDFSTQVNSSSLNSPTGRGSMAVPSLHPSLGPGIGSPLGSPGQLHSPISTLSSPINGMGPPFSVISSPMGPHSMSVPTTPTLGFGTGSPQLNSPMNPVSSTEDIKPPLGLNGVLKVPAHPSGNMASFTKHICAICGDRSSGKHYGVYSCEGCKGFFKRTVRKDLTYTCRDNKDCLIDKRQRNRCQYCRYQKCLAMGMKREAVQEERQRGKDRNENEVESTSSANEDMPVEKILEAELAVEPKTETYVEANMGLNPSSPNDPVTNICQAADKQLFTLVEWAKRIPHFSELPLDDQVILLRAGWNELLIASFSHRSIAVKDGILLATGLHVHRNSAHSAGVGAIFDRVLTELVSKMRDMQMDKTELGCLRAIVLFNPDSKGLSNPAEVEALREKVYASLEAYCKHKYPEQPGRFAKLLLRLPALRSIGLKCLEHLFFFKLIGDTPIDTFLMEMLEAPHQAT
- ASSAY_PROTOCOL: cell-based
- EXPERIMENTAL_CONTEXT: 0.5 mM
Exercise: for every item that follows, state its recorded FXR-dependent activity, induction.
One number for each entry, in fold.

| COMPOUND | READOUT_UNIT | FXR-dependent activity, induction |
| --- | --- | --- |
| CC1(C)[C@@H]2C[C@H]1[C@@](C)(O)[C@@H](O)C2 | fold | 5 |

input: Please report the recorded FXR-dependent activity, induction for CC12CCC(C1)C(C)(C)C2O (stereo not shown) .
output: 5

###

- SYSTEM: FXR (Rattus norvegicus, UniProt Q62735)
- ASSAY_PROTOCOL: cell-based
- EXPERIMENTAL_CONTEXT: dose not stated
EXPERIMENTAL_ENDPOINT: FXR-dependent activity, induction

Would you please look over these solved cases?
| MOLECULE | FXR-dependent activity, induction |
| --- | --- |
| CC(C)(O)CC[C@@H](O)[C@](C)(O)[C@H]1CC[C@@]2(O)C3=CC(=O)[C@@H]4C[C@@H](O)[C@@H](O)C[C@]4(C)[C@H]3CC[C@]12C [20E, 20-hydroxyecdysone] | unresponsive |
| O=C(O)c1ccc2c(c1)OCO2 | inactive |
| COC1=C(OC)C(=O)C(C/C=C(\C)CC/C=C(\C)CC/C=C(\C)CC/C=C(\C)CC/C=C(\C)CC/C=C(\C)CC/C=C(\C)CCC=C(C)C)=C(C)C1=O | inactive |
| COC1=C(OC)C(=O)C(C/C=C(\C)CC/C=C(\C)CC/C=C(\C)CCC=C(C)C)=C(C)C1=O | 3 fold |
| CC1=C[C@H]2[C@@]3(O)[C@H](C)[C@@H](O)[C@]4(O)[C@H]([C@@H]3C=C(CO)C[C@]2(O)C1=O)C4(C)C | inactive |
| O=C(/C=C/c1ccc(O)c(O)c1)O[C@H](Cc1ccc(O)c(O)c1)C(=O)O | ineffective |

I have 8 molecules here; please give me FXR-dependent activity, induction for each one.
1. C=C(C)[C@H]1Cc2c(ccc3c2O[C@@H]2COc4cc(OC)c(OC)cc4[C@@H]2C3=O)O1
2. COc1cc(/C=C/C(=O)CC(=O)/C=C/c2ccc(O)c(OC)c2)ccc1O
3. O=c1[nH]c(=O)c2[nH]cnc2[nH]1
4. C[C@H]([C@H](O)CCC(C)(C)O)[C@H]1CC[C@@]2(O)C3=CC(=O)[C@@H]4C[C@@H](O)[C@@H](O)C[C@]4(C)[C@H]3CC[C@]12C
5. COC1=C(OC)C(=O)C(C/C=C(\C)CC/C=C(\C)CC/C=C(\C)CC/C=C(\C)CC/C=C(\C)CC/C=C(\C)CC/C=C(\C)CC/C=C(\C)CCC=C(C)C)=C(C)C1=O
6. Nc1ncnc2nc[nH]c12
7. O=c1[nH]cnc2nc[nH]c12
8. COC1=C(OC)C(=O)C(C/C=C(\C)CCC=C(C)C)=C(C)C1=O

output:
1: inactive; 2: ineffective; 3: ineffective; 4: unresponsive; 5: inactive; 6: ineffective; 7: ineffective; 8: 7 fold

###

Exercise: for every item that follows, state its recorded FXR ACTIVITY (fold-induction).
- SYSTEM: FXR (Rattus norvegicus)
- ASSAY_PROTOCOL: cell-based
- EXPERIMENTAL_CONTEXT: final dose of 50 ∝M; 1 = induction less than 2-fold below cytotoxic doses
Answers are plain numbers, in fold-induction.

Would you please look over these solved cases?
| COMPOUND | SYSTEM | READOUT_UNIT | FXR ACTIVITY (fold-induction) |
| --- | --- | --- | --- |
| C=CC(C)(O)CCC=C(C)CCC=C(C)C (stereo not shown) | FXR (Rattus norvegicus) | fold-induction | 9 |
| C/C(=C\CO)CCC[C@H](C)CCC[C@H](C)CCCC(C)C | FXR (Rattus norvegicus) | fold-induction | 3 |
| COC(=O)/C=C(\C)CC/C=C(\C)CC[C@H]1OC1(C)C | FXR (Rattus norvegicus) | fold-induction | 20 |

I have 4 compounds here; please give me FXR ACTIVITY (fold-induction) for each one.
1. CC(C)=CCC/C(C)=C/CO
2. CC(C)=CCCC(C)=CCCC(C)=CC=O
3. CC(COc1ccc(Oc2ccccc2)cc1)Oc1ccccn1 (stereo not shown)
4. CC(C)=CCCC(C)=CCCC(C)=CC(=O)O

output:
1
2
9
3

###

Exercise: for every item that follows, state its recorded FXR-dependent CAT activity, induction.
- SYSTEM: FXR (Rattus norvegicus, UniProt Q62735)
- ASSAY_PROTOCOL: cell-based
- EXPERIMENTAL_CONTEXT: 50 μM
Answers are plain numbers, in fold.

I have 5 molecules here; please give me FXR-dependent CAT activity, induction for each one.
1. C=CC(C)(O)CCC=C(C)CCC=C(C)C (centres unmarked) [nerolidol]
2. CCOC(=O)C=C(C)CCCC(C)(Cl)CCCC(C)(C)Cl (centres unmarked) [ZR232]
3. COc1cc(C2Oc3cc([C@H]4Oc5cc(O)cc(O)c5C(=O)[C@@H]4O)ccc3OC2CO)ccc1O (some centres unmarked) [silybin]
4. COc1ccc(-c2cc(=O)c3c(OC)c(OC)c(OC)c(OC)c3o2)cc1 [tangeretin]
5. CC(C)=CCCC(C)=CCCC(C)=CC=O [farnesal]

output:
1. 9
2. 5
3. 18
4. 4
5. 2

input: Lab note: need FXR-dependent CAT activity, induction with FXR (Rattus norvegicus, UniProt Q62735) for entry COC(=O)/C=C(\C)CC/C=C(\C)CCC=C(C)C [methyl farnesoate] , please look it up.
output: 6

###

Exercise: for every item that follows, state its recorded FXR-dependent activity, induction.
- SYSTEM: FXR (Rattus norvegicus)
- ASSAY_PROTOCOL: cell-based
- EXPERIMENTAL_CONTEXT: 400 μM
Give bare numbers, in fold.

Would you please look over these solved cases?
| COMPOUND | SYSTEM | READOUT_UNIT | FXR-dependent activity, induction |
| --- | --- | --- | --- |
| OCCc1cccc(O)c1 [3-hydroxyphenethyl alcohol, 3-hydroxyphenethlyl alcohol] | FXR (Rattus norvegicus) | fold | 3 |
| OCCc1ccccc1O [2-hydroxyphenethyl alcohol, 2-hydroxyphenethlyl alcohol] | FXR (Rattus norvegicus) | fold | 3 |

input: Please report the recorded FXR-dependent activity, induction for OCCc1ccc(O)cc1 [4-hydroxyphenethyl alcohol, 4-hydroxyphenethlyl alcohol] .
output: 3
